- experiment_summary: qHTS assay for small molecule agonists of the p53 signaling pathway - cell viability (AID 651633); also: nearly all actives have a fitted effect of over 30% in size
- reported_conditions: p53RE-bla HCT-116 viability, ATP luminescence, 16 h; series mostly up to 83.3 µM
Records with an inconclusive call do not appear. The source made the active and inactive calls. Calls follow the shape of the full dose curve.
Outcomes: 1 (yes) = active, 0 (no) = inactive

COc1cc(C[C@@H]2NCCc3cc(O)c(O)cc32)cc(OC)c1OC = 0 (no)
O=[N+]([O-])c1c(Cl)cccc1-c1c[nH]cc1Cl = 1 (yes)
CCCCC/C=C\CCC(=O)N[C@H]1[C@H](Oc2c3cc4cc2Oc2ccc(cc2Cl)[C@@H](O[C@@H]2O[C@H](CO)[C@@H](O)[C@H](O)[C@H]2NC(C)=O)[C@@H]2NC(=O)[C@H](NC(=O)[C@@H]4NC(=O)[C@H]4NC(=O)[C@@H](Cc5ccc(c(Cl)c5)O3)NC(=O)[C@H](N)c3ccc(O)c(c3)Oc3cc(O)cc4c3)c3ccc(O)c(c3)-c3c(O[C@H]4O[C@H](CO)[C@@H](O)[C@H](O)[C@@H]4O)cc(O)cc3[C@@H](C(=O)O)NC2=O)O[C@H](CO)[C@@H](O)[C@@H]1O = 0 (no)
C=C[C@]1(C)C[C@@H](OC(=O)CO)[C@]2(C)[C@H](C)CC[C@]3(CCC(=O)[C@H]32)[C@@H](C)[C@@H]1O = 0 (no)
COc1ccc(C(=O)CCC(=O)O)c2ccccc12 = 0 (no)
NCCC[C@H](N)C(=O)O = 0 (no)
COCC1=C(C(=O)OC(C)OC(=O)OC(C)C)N2C(=O)[C@@H](NC(=O)/C(=N\OC)c3csc(N)n3)[C@H]2SC1 (some centres undefined) = 0 (no)
CC(C)CCCC(C)NC(C)C (centres undefined) = 0 (no)
CC(O)[C@@H]1NC(=O)[C@H](Cc2ccccc2)NC(=O)[C@H](C(C)O)NC(=O)[C@H](CCCCN)NC(=O)[C@H](Cc2c[nH]c3ccccc23)NC(=O)[C@H](Cc2ccccc2)NC(=O)[C@H](Cc2ccccc2)NC(=O)[C@H](CC(N)=O)NC(=O)[C@H](CCCCN)NC(=O)[C@@H](NC(=O)CNC(=O)[C@H](C)N)CSSC[C@@H](C(=O)O)NC(=O)[C@H](CO)NC1=O (some centres undefined) = 0 (no)
c1ccc2c(CCC3CCNCC3)c[nH]c2c1 = 0 (no)
CO[C@H]1C[C@H](O[C@H]2[C@H](C)[C@@H](O[C@@H]3O[C@H](C)C[C@H](N(C)C)[C@H]3OC(C)=O)[C@@H](C)C[C@]3(CO3)C(=O)[C@H](C)[C@@H](OC(C)=O)[C@@H](C)[C@@H](C)OC(=O)[C@@H]2C)O[C@@H](C)[C@@H]1OC(C)=O = 0 (no)
C[C@]12CCC(=O)C=C1CC[C@@H]1[C@@H]2[C@@H](O)C[C@@]2(C)[C@H]1CC[C@]2(O)C(=O)COP(=O)(O)O = 0 (no)
CCOc1cc(-c2nccc3cc(OC)c(OC)cc23)cc(OCC)c1OCC = 0 (no)
CCCc1nc(C(C)(C)O)c(C(=O)OCc2oc(=O)oc2C)n1Cc1ccc(-c2ccccc2-c2nn[nH]n2)cc1 = 0 (no)
